Data credit: patent US20230416363A1

# study_target: T1, human PD-1 expressed on cells (human, UniProt Q15116 25-288)
# T1 construct: whole, on cells
# T1 sequence (Q15116 25-288): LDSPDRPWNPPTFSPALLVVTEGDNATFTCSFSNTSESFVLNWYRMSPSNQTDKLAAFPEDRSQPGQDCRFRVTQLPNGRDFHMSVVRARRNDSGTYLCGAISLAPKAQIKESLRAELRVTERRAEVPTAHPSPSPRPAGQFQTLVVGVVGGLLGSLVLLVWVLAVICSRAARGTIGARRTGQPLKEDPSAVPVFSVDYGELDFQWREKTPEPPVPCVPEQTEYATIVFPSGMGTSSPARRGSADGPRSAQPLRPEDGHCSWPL
# protocol_details: flow cytometry, hPD1-293 cells
pEC50: −log10 of the molar value.

binder	pEC50
24H9 (antibody, human IgG1, V domains shown) VH: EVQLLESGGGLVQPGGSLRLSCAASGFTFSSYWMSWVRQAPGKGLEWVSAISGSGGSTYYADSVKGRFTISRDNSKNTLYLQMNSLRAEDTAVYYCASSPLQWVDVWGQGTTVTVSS VL: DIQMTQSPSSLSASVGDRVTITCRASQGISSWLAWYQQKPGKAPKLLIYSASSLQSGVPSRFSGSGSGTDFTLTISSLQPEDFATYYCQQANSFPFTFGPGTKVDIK	8.57
